# tested-on: Tyrosine-protein kinase Lck (Homo sapiens)
# Sequence (P06239 whole entry): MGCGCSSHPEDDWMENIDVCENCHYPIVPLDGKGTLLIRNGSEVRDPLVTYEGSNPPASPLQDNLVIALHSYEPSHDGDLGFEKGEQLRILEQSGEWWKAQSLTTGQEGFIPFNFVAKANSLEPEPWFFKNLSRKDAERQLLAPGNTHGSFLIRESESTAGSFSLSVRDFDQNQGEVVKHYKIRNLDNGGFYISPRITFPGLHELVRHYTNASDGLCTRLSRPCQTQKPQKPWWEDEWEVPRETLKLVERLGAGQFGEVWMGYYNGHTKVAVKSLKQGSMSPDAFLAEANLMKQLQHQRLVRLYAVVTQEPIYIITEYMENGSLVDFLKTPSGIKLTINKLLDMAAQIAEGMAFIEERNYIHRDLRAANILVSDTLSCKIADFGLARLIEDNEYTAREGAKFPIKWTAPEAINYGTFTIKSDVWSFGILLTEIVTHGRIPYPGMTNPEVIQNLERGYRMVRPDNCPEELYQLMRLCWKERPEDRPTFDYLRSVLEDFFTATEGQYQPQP
measured-property: IC50 (nM)
Answers are plain numbers, in nM.

Asked: Fill in: IC50 of O=C(c1ccc(Oc2ccccc2)cc1Cl)c1c[nH]c2ncnc(NC3CC[C@@H](CO)OC3)c12 (stereo partly specified) is ___
Given back: 3.9
